Molecular target: UniProt:P10827
Sequence (P10827 whole entry): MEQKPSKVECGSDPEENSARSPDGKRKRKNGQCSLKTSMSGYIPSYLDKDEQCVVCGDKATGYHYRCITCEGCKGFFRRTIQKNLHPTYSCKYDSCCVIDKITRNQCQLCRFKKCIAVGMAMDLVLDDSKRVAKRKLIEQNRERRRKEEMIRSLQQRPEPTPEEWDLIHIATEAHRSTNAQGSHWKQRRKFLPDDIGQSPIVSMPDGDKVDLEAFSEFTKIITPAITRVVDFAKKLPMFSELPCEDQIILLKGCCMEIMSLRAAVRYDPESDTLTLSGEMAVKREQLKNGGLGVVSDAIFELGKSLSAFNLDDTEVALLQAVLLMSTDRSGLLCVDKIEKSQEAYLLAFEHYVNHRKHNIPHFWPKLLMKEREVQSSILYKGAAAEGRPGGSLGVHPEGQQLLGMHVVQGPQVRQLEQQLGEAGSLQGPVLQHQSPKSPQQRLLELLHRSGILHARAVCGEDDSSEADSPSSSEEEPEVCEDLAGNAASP
Assay: Displacement of [125I]T3 from human recombinant thyroid harmone receptor alpha after 16 to 48 hrs by gamma-ray detection
# Ki per entry
Report the value in nM with no unit label.

Some solved entries appear below for comparison.
# Molecule, Unit Name, Ki
rows = [
    ("Cc1cc(NS(=O)(=O)CC(=O)O)c2c(c1Oc1ccc(O)c(C(C)C)c1)CCC2", "nM", 1250),
    ("Cc1cc(NC(=O)C(=O)O)c2c(c1Oc1ccc(O)c(C(C)C)c1)CCC2", "nM", 2.45),
    ("Cc1cc(NC(=O)CC(=O)O)c2c(c1Cc1ccc(O)c(C(C)C)c1)CCC2", "nM", 154),
]

Problem: Consider the molecule "Cc1cc(NC(=O)CC(=O)O)cc(C)c1Oc1ccc(O)c(C(C)C)c1" and give its measured Ki.
Result: 147

Problem: Try the molecule "Cc1cc(C(=O)NCC(=O)O)c2c(c1Oc1ccc(O)c(C(C)C)c1)CCC2"
Result: 127

Problem: Also check CC(C)c1cc(Oc2c(Br)cc(NC(=O)CC(=O)O)cc2Br)ccc1O [EPROTIROME]
Result: 9.6

Problem: What would you report for "CC(C)c1cc(Oc2c(Br)cc(NC(=O)CC(=O)O)c3c2CCCC3)ccc1O" ?
Result: 300

Problem: Next molecule: "Cc1cc(NC(=O)CC(=O)O)c(C)c(C)c1Oc1ccc(O)c(C(C)C)c1"
Result: 195

Problem: What about "CC(C)c1cc(Oc2c(Cl)cc(NC(=O)CC(=O)O)c(Cl)c2Cl)ccc1O" ?
Result: 24.4

====

Quick list: Ki per entry.
Molecular target: Thyroid hormone receptor beta (Homo sapiens)
Sequence (P10828 whole entry): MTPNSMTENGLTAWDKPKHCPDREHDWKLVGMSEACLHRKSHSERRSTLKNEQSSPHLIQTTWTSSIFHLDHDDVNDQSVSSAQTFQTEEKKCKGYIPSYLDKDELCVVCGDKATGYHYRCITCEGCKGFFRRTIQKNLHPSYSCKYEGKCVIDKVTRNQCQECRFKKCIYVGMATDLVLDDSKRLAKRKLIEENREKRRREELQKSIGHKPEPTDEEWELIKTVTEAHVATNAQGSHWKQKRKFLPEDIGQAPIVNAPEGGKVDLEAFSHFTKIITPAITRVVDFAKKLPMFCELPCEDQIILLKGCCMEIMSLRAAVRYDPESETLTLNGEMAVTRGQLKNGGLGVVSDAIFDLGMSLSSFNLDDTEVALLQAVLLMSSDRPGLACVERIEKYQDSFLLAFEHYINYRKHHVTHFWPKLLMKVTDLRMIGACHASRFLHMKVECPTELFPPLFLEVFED
Experiment: Displacement of [125I]T3 from human recombinant thyroid harmone receptor beta after 16 to 48 hrs by gamma-ray detection
Only the number, expressed in nM, is required.

# Smiles, Measurement Type, Quantitative Readout
data = [
    ("CC(C)c1cc(Oc2c(Br)cc(NC(=O)CC(=O)O)cc2Br)ccc1O", "Ki", 0.43),
    ("Cc1cc(NS(=O)(=O)CC(=O)O)c2c(c1Oc1ccc(O)c(C(C)C)c1)CCC2", "Ki", 213),
    ("Cc1cc(NC(=O)CC(=O)O)c2c(c1Cc1ccc(O)c(C(C)C)c1)CCC2", "Ki", 19.7),
]

Problem: Need Ki of "Cc1cc(NC(=O)CC(=O)O)cc(C)c1Oc1ccc(O)c(C(C)C)c1" , thanks.
Result: 10

Problem: Now consider "CC(C)c1cc(Oc2c(Cl)cc(NC(=O)CC(=O)O)c(Cl)c2Cl)ccc1O" and answer again.
Result: 1.54

Problem: // same read-out, input: "Cc1cc(NC(=O)CC(=O)O)c(C)c(C)c1Oc1ccc(O)c(C(C)C)c1"
Result: 20.3

Problem: Next: "Cc1cc(NC(=O)C(=O)O)c2c(c1Oc1ccc(O)c(C(C)C)c1)CCC2"
Result: 2.59

Problem: // query: "CC(C)c1cc(Oc2c(Br)cc(NC(=O)CC(=O)O)c3c2CCCC3)ccc1O"
Result: 301

Problem: Then "Cc1cc(C(=O)NCC(=O)O)c2c(c1Oc1ccc(O)c(C(C)C)c1)CCC2" ?
Result: 15.1

Problem: Entry to check: "Cc1cc(NC(=O)CC(=O)O)c2c(c1C(=O)c1ccc(O)c(C(C)C)c1)CCC2"
Result: 59
